All values here come from the supplement of paper PMC6555819.

Tested on: FXR:RXRa (NR concentration 270 nM, RXRa partner concentration 90 nM)
Assay: PBM binding z-score (relative to random genomic background probes); higher = stronger binding; sequences stand for … in GC…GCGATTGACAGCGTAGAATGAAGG

[
  {
    "querySequence": "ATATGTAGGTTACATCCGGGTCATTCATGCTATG",
    "targetUnderTest": "FXR:RXRa (NR concentration 270 nM, RXRa partner concentration 90 nM)",
    "PBM binding z-score": 2.21
  },
  {
    "querySequence": "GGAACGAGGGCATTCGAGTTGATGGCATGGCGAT",
    "targetUnderTest": "FXR:RXRa (NR concentration 270 nM, RXRa partner concentration 90 nM)",
    "PBM binding z-score": 1.48
  },
  {
    "querySequence": "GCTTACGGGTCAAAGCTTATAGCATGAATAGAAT",
    "targetUnderTest": "FXR:RXRa (NR concentration 270 nM, RXRa partner concentration 90 nM)",
    "PBM binding z-score": 6.25
  },
  {
    "querySequence": "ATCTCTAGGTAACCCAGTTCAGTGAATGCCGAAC",
    "targetUnderTest": "FXR:RXRa (NR concentration 270 nM, RXRa partner concentration 90 nM)",
    "PBM binding z-score": 0.242
  },
  {
    "querySequence": "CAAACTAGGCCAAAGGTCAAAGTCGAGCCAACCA",
    "targetUnderTest": "FXR:RXRa (NR concentration 270 nM, RXRa partner concentration 90 nM)",
    "PBM binding z-score": 6.1
  },
  {
    "querySequence": "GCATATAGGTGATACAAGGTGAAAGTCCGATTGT",
    "targetUnderTest": "FXR:RXRa (NR concentration 270 nM, RXRa partner concentration 90 nM)",
    "PBM binding z-score": 1.98
  },
  {
    "querySequence": "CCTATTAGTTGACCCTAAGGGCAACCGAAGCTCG",
    "targetUnderTest": "FXR:RXRa (NR concentration 270 nM, RXRa partner concentration 90 nM)",
    "PBM binding z-score": 4.38
  },
  {
    "querySequence": "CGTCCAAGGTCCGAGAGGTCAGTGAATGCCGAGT",
    "targetUnderTest": "FXR:RXRa (NR concentration 270 nM, RXRa partner concentration 90 nM)",
    "PBM binding z-score": 2.4
  },
  {
    "querySequence": "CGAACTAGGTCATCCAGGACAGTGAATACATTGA",
    "targetUnderTest": "FXR:RXRa (NR concentration 270 nM, RXRa partner concentration 90 nM)",
    "PBM binding z-score": 4.28
  },
  {
    "querySequence": "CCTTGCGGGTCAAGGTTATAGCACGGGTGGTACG",
    "targetUnderTest": "FXR:RXRa (NR concentration 270 nM, RXRa partner concentration 90 nM)",
    "PBM binding z-score": 4.66
  },
  {
    "querySequence": "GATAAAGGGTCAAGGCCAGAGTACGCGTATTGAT",
    "targetUnderTest": "FXR:RXRa (NR concentration 270 nM, RXRa partner concentration 90 nM)",
    "PBM binding z-score": 7.29
  },
  {
    "querySequence": "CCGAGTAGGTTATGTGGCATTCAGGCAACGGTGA",
    "targetUnderTest": "FXR:RXRa (NR concentration 270 nM, RXRa partner concentration 90 nM)",
    "PBM binding z-score": 0.192
  },
  {
    "querySequence": "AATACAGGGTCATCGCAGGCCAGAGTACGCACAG",
    "targetUnderTest": "FXR:RXRa (NR concentration 270 nM, RXRa partner concentration 90 nM)",
    "PBM binding z-score": 7.15
  },
  {
    "querySequence": "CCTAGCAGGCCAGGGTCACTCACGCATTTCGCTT",
    "targetUnderTest": "FXR:RXRa (NR concentration 270 nM, RXRa partner concentration 90 nM)",
    "PBM binding z-score": 2.04
  },
  {
    "querySequence": "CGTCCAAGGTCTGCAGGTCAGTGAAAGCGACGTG",
    "targetUnderTest": "FXR:RXRa (NR concentration 270 nM, RXRa partner concentration 90 nM)",
    "PBM binding z-score": 0.149
  },
  {
    "querySequence": "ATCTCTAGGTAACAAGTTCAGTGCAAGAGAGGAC",
    "targetUnderTest": "FXR:RXRa (NR concentration 270 nM, RXRa partner concentration 90 nM)",
    "PBM binding z-score": 0.558
  },
  {
    "querySequence": "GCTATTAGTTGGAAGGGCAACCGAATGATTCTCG",
    "targetUnderTest": "FXR:RXRa (NR concentration 270 nM, RXRa partner concentration 90 nM)",
    "PBM binding z-score": -0.211
  },
  {
    "querySequence": "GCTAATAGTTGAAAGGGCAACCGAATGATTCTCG",
    "targetUnderTest": "FXR:RXRa (NR concentration 270 nM, RXRa partner concentration 90 nM)",
    "PBM binding z-score": 0.971
  },
  {
    "querySequence": "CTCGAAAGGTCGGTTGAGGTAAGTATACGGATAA",
    "targetUnderTest": "FXR:RXRa (NR concentration 270 nM, RXRa partner concentration 90 nM)",
    "PBM binding z-score": 1.93
  },
  {
    "querySequence": "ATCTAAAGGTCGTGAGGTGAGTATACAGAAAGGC",
    "targetUnderTest": "FXR:RXRa (NR concentration 270 nM, RXRa partner concentration 90 nM)",
    "PBM binding z-score": 5.84
  },
  {
    "querySequence": "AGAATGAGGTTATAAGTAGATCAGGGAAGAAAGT",
    "targetUnderTest": "FXR:RXRa (NR concentration 270 nM, RXRa partner concentration 90 nM)",
    "PBM binding z-score": 1.94
  },
  {
    "querySequence": "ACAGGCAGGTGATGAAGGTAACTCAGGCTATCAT",
    "targetUnderTest": "FXR:RXRa (NR concentration 270 nM, RXRa partner concentration 90 nM)",
    "PBM binding z-score": -0.308
  },
  {
    "querySequence": "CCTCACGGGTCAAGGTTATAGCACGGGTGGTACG",
    "targetUnderTest": "FXR:RXRa (NR concentration 270 nM, RXRa partner concentration 90 nM)",
    "PBM binding z-score": 5.02
  },
  {
    "querySequence": "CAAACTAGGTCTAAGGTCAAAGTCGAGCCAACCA",
    "targetUnderTest": "FXR:RXRa (NR concentration 270 nM, RXRa partner concentration 90 nM)",
    "PBM binding z-score": 5.18
  }
]

* * *

System: RXRa DBDmut IVT, anti-RXR (DBD mutation: RXRa K156A/R161A, NR concentration 90 nM)
Assay: PBM binding z-score (relative to random genomic background probes); higher = stronger binding; sequences stand for … in GC…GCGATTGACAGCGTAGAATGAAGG
Classify by measured PBM binding z-score: Fulfilled if it is equal to or exceeds 0.5, Not fulfilled if it is smaller.

[
  {
    "querySequence": "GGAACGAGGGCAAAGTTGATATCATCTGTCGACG",
    "groupLabel": "Fulfilled"
  },
  {
    "querySequence": "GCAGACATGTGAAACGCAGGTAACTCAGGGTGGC",
    "groupLabel": "Not fulfilled"
  },
  {
    "querySequence": "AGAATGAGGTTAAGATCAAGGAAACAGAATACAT",
    "groupLabel": "Fulfilled"
  },
  {
    "querySequence": "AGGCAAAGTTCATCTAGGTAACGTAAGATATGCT",
    "groupLabel": "Fulfilled"
  },
  {
    "querySequence": "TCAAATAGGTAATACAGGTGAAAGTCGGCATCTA",
    "groupLabel": "Fulfilled"
  },
  {
    "querySequence": "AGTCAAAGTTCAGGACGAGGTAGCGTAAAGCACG",
    "groupLabel": "Fulfilled"
  },
  {
    "querySequence": "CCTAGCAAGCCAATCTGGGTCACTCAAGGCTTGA",
    "groupLabel": "Not fulfilled"
  },
  {
    "querySequence": "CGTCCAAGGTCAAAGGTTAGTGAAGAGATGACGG",
    "groupLabel": "Fulfilled"
  },
  {
    "querySequence": "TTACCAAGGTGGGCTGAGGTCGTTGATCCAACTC",
    "groupLabel": "Not fulfilled"
  },
  {
    "querySequence": "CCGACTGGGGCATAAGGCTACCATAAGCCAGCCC",
    "groupLabel": "Not fulfilled"
  },
  {
    "querySequence": "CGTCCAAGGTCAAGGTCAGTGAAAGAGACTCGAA",
    "groupLabel": "Fulfilled"
  },
  {
    "querySequence": "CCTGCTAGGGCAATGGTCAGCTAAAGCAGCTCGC",
    "groupLabel": "Not fulfilled"
  },
  {
    "querySequence": "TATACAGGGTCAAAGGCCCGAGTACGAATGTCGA",
    "groupLabel": "Fulfilled"
  },
  {
    "querySequence": "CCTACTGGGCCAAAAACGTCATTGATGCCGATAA",
    "groupLabel": "Not fulfilled"
  },
  {
    "querySequence": "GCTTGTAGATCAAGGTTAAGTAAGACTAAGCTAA",
    "groupLabel": "Not fulfilled"
  },
  {
    "querySequence": "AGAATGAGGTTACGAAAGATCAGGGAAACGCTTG",
    "groupLabel": "Fulfilled"
  },
  {
    "querySequence": "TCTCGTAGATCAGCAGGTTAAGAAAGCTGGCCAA",
    "groupLabel": "Not fulfilled"
  },
  {
    "querySequence": "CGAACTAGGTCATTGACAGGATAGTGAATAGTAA",
    "groupLabel": "Fulfilled"
  }
]
